These data points were gathered from ChEMBL document CHEMBL5154813.

# TESTED_SYSTEM: Peroxisome proliferator-activated receptor alpha (Homo sapiens) (UniProt Q07869)
# Sequence (whole entry): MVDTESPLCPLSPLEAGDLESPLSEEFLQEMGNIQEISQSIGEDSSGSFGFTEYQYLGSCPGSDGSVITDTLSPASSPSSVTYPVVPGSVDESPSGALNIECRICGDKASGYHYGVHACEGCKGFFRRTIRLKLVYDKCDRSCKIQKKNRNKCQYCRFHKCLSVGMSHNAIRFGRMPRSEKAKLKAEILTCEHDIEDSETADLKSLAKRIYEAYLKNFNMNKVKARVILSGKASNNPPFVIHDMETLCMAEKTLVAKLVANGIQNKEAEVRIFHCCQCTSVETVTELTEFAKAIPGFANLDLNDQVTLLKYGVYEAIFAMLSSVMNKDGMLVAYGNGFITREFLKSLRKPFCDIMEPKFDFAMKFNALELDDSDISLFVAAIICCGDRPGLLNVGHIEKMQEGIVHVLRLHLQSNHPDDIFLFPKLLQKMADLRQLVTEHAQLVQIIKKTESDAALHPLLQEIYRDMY
# METHOD_NOTES: Agonist activity at yeast Gal4-fused human PPARalpha LBD transfected in human HepG2 cells assessed as transactivation by measuring beta-galactosidase activity incubated for 20 hrs by luminometry relative to control
# Type: cell-based
# CONDITION_PARAMETERS: filed as agonist
METRIC: Emax (%)
Give bare numbers, in %.

| COMPOUND | UNITS_OF_MEASURE | Emax |
| --- | --- | --- |
| CC(C)(C)OC(=O)NC(CSCc1ccc(C(=O)c2ccc([N+](=O)[O-])cc2)cc1)C(=O)O (stereo not given) | % | 103 |
| CC(C)(C)OC(=O)NC(COCc1ccc(Cc2ccccc2)cc1)C(=O)O (stereo not given) | % | 52 |
| CC(C)(C)OC(=O)NC(CSCc1ccc(C(=O)c2ccccc2)cc1)C(=O)O (stereo not given) | % | 83 |
| CC(C)(C)OC(=O)NC(CSCc1ccccc1)C(=O)O (stereo not given) | % | 118 |
| CC(C)(C)OC(=O)NC(CSCc1ccc(Cc2ccccc2)cc1)C(=O)O (stereo not given) | % | 64 |

Count: 4. Required value per item: Emax.
1. COc1ccc(C(=O)c2ccc(CSCC(NC(=O)OC(C)(C)C)C(=O)O)cc2)cc1 (stereo not given)
2. O=C(NC(CSCc1ccc(-c2ccc(Cl)cc2)cc1)C(=O)O)OCc1ccccc1 (stereo not given)
3. CC(SCc1ccccc1)C(NC(=O)c1ccccc1)C(=O)O (stereo not given)
4. CC(C)(C)OC(=O)NC(CSCc1ccc(/C=C/C(=O)c2ccccc2)cc1)C(=O)O (stereo not given)

A.
99
138
48
94

Q. Return the recorded Emax value; entry: O=C(NC(CSCc1ccc(C(=O)c2ccccc2)cc1)C(=O)O)OCc1ccccc1 (stereo not given)
A. 90
